experiment: Oral pharmacokinetics in Wistar-Hanover rats; assay type: in vivo, male Wistar-Hanover rats; conditions: male, Wistar-Hanover; rat, oral gavage, plasma; prodrug measured; read-out: AUC0-x hr
QUANTITY NAME: AUC (µM·h)
Provide only the numeric value, understood in µM·h.

Past entries and their recorded results:
COMPOUND | AUC [µM·h]
CCOC(=O)OC(C)Oc1c(C(=O)NCc2ccc(F)cc2)nc(C(C)(C)NC(=O)c2nnc(C)o2)n(C)c1=O (stereo not drawn) | 0.002
Cc1nnc(C(=O)NC(C)(C)c2nc(C(=O)NCc3ccc(F)cc3)c(OC(C)OC(=O)OC(C)C)c(=O)n2C)o1 (stereo not drawn) | 0.039

Now take the following compound into account.
*Q* Tell me its AUC given CCOC(=O)OC(CC)Oc1c(C(=O)NCc2ccc(F)cc2)nc(C(C)(C)NC(=O)c2nnc(C)o2)n(C)c1=O (stereo not drawn) as the entry.
*A* 0.028

---

assay: Intravenous pharmacokinetics in Wistar-Hanover rats; type: in vivo, male Wistar-Hanover rats; settings: rat, plasma, prodrug measured
QUANTITY NAME: nAUC0-∞ (µM·h)
Provide only the numeric value, understood in µM·h.

Past entries and their recorded results:
COMPOUND | nAUC0-∞, µM·h
CCOC(=O)OC(CC)Oc1c(C(=O)NCc2ccc(F)cc2)nc(C(C)(C)NC(=O)c2nnc(C)o2)n(C)c1=O (stereo not shown) | 0.085
Cc1nnc(C(=O)NC(C)(C)c2nc(C(=O)NCc3ccc(F)cc3)c(OCOC(=O)C(C)(C)C)c(=O)n2C)o1 | 0.012

*Q* Tell me its nAUC0-∞ given Cc1nnc(C(=O)NC(C)(C)c2nc(C(=O)NCc3ccc(F)cc3)c(OC(C)OC(=O)OC(C)C)c(=O)n2C)o1 (stereo not shown) as the entry.
*A* 0.119

*Q* Tell me its nAUC0-∞ given CCOC(=O)OC(C)Oc1c(C(=O)NCc2ccc(F)cc2)nc(C(C)(C)NC(=O)c2nnc(C)o2)n(C)c1=O (stereo not shown) as the entry.
*A* 0.012

---

Item-by-item account of AUC
assay: Intravenous pharmacokinetics in Wistar-Hanover rats; format: in vivo, male Wistar-Hanover rats; conditions: male, Wistar-Hanover, rat, plasma, prodrug measured, read-out: AUC0-x
Reply with a number, then the unit it belongs to.

COMPOUND | TEST RESULT
CCOC(=O)OC(CC)Oc1c(C(=O)NCc2ccc(F)cc2)nc(C(C)(C)NC(=O)c2nnc(C)o2)n(C)c1=O (stereo not shown) | 0.085 µM·h

*Q* Tell me its AUC given Cc1nnc(C(=O)NC(C)(C)c2nc(C(=O)NCc3ccc(F)cc3)c(OC(C)OC(=O)OC(C)C)c(=O)n2C)o1 (stereo not shown) as the entry.
*A* 0.119 µM·h

*Q* Tell me its AUC given CCOC(=O)OC(C)Oc1c(C(=O)NCc2ccc(F)cc2)nc(C(C)(C)NC(=O)c2nnc(C)o2)n(C)c1=O (stereo not shown) as the entry.
*A* 0.012 µM·h

*Q* Tell me its AUC given Cc1nnc(C(=O)NC(C)(C)c2nc(C(=O)NCc3ccc(F)cc3)c(OCOC(=O)C(C)(C)C)c(=O)n2C)o1 as the entry.
*A* 0.012 µM·h

---

assay: Intravenous pharmacokinetics in Wistar-Hanover rats; type: in vivo, male Wistar-Hanover rats; details: male, Wistar-Hanover, rat, plasma, prodrug
Item-by-item account of half-life
Provide only the numeric value, understood in min.

*Q* Tell me its half-life given CCOC(=O)OC(C)Oc1c(C(=O)NCc2ccc(F)cc2)nc(C(C)(C)NC(=O)c2nnc(C)o2)n(C)c1=O (stereo not shown) as the entry.
*A* 9

*Q* Tell me its half-life given Cc1nnc(C(=O)NC(C)(C)c2nc(C(=O)NCc3ccc(F)cc3)c(OC(C)OC(=O)OC(C)C)c(=O)n2C)o1 (stereo not shown) as the entry.
*A* 10.2

*Q* Tell me its half-life given Cc1nnc(C(=O)NC(C)(C)c2nc(C(=O)NCc3ccc(F)cc3)c(OCOC(=O)C(C)(C)C)c(=O)n2C)o1 as the entry.
*A* 2.4

*Q* Tell me its half-life given CCOC(=O)OC(CC)Oc1c(C(=O)NCc2ccc(F)cc2)nc(C(C)(C)NC(=O)c2nnc(C)o2)n(C)c1=O (stereo not shown) as the entry.
*A* 8.4

---

system: cryopreserved hepatocytes from dog; experiment: Metabolism of compounds in hepatocyte suspensions (prodrug hydrolysis), dog; type: in vitro ADME; settings: prodrug 1 μM, dog hepatocytes 1×10^6 cells/mL, 37° C.
Item-by-item account of Remaining at 90 min, Dog
Provide only the numeric value, understood in %.

Past entries and their recorded results:
COMPOUND | TARGET OR TEST SYSTEM | Remaining at 90 min, Dog, %
Cc1nnc(C(=O)NC(C)(C)c2nc(C(=O)NCc3ccc(F)cc3)c(OCOC(=O)C(C)(C)C)c(=O)n2C)o1 | cryopreserved hepatocytes from dog | 3.21
Cc1nnc(C(=O)NC(C)(C)c2nc(C(=O)NCc3ccc(F)cc3)c(OC(OC(=O)OC(C)C)C(C)C)c(=O)n2C)o1 (stereo not shown) | cryopreserved hepatocytes from dog | 5.97
CC(=O)OC(Oc1c(C(=O)NCc2ccc(F)cc2)nc(C(C)(C)NC(=O)c2nnc(C)o2)n(C)c1=O)C(C)C (stereo not shown) | cryopreserved hepatocytes from dog | 8.14

*Q* Tell me its Remaining at 90 min, Dog given CCCCOC(=O)OC(C)Oc1c(C(=O)NCc2ccc(F)cc2)nc(C(C)(C)NC(=O)c2nnc(C)o2)n(C)c1=O (stereo not shown) as the entry.
*A* 3.31

*Q* Tell me its Remaining at 90 min, Dog given Cc1nnc(C(=O)NC(C)(C)c2nc(C(=O)NCc3ccc(F)cc3)c(OCOC(=O)OC(C)C)c(=O)n2C)o1 as the entry.
*A* 1.70

*Q* Tell me its Remaining at 90 min, Dog given CCOC(=O)OC(C)Oc1c(C(=O)NCc2ccc(F)cc2)nc(C(C)(C)NC(=O)c2nnc(C)o2)n(C)c1=O (stereo not shown) as the entry.
*A* 15.94

*Q* Tell me its Remaining at 90 min, Dog given CCOC(=O)OC(CC)Oc1c(C(=O)NCc2ccc(F)cc2)nc(C(C)(C)NC(=O)c2nnc(C)o2)n(C)c1=O (stereo not shown) as the entry.
*A* 8.90

---

assay: Dog pharmacokinetic study, oral dose; type: in vivo; set-up: dose or concentration left out as unconfirmed; details: male, plasma, fasted Beagle dogs, median, compound measured = prodrug dosed
Item-by-item account of Tmax

*Q* Tell me its Tmax given CCOC(=O)OC(C)Oc1c(C(=O)NCc2ccc(F)cc2)nc(C(C)(C)NC(=O)c2nnc(C)o2)n(C)c1=O (centres unmarked) as the entry.
*A* 18 min

*Q* Tell me its Tmax given Cc1nnc(C(=O)NC(C)(C)c2nc(C(=O)NCc3ccc(F)cc3)c(OCOC(=O)C(C)(C)C)c(=O)n2C)o1 as the entry.
*A* 30 min

---

assay: Dog pharmacokinetic study, oral dose; type: in vivo; design: dose or concentration left out as unconfirmed; conditions: male, plasma, fasted Beagle dogs, mean ± SE, compound measured = prodrug dosed, read-out: AUC0-24 hr
QUANTITY NAME: AUC(0-t) (µM·h)
Provide only the numeric value, understood in µM·h.

COMPOUND | QUANTITY NAME | TEST RESULT
Cc1nnc(C(=O)NC(C)(C)c2nc(C(=O)NCc3ccc(F)cc3)c(OCOC(=O)C(C)(C)C)c(=O)n2C)o1 [Compound 22] | AUC(0-t) | 0.006

Now take the following compound into account.
*Q* Tell me its AUC(0-t) given CCOC(=O)OC(C)Oc1c(C(=O)NCc2ccc(F)cc2)nc(C(C)(C)NC(=O)c2nnc(C)o2)n(C)c1=O (centres unmarked) [Compound 1] as the entry.
*A* 0.146

---

test: Intravenous pharmacokinetics in Wistar-Hanover rats; format: in vivo, male Wistar-Hanover rats; settings: male, Wistar-Hanover, rat, plasma, prodrug, read-out: Clp
QUANTITY NAME: clearance (mL/min/kg)
Provide only the numeric value, understood in mL/min/kg.

MOLECULE | TEST RESULT
Cc1nnc(C(=O)NC(C)(C)c2nc(C(=O)NCc3ccc(F)cc3)c(OC(C)OC(=O)OC(C)C)c(=O)n2C)o1 (centres unmarked) | 244

Now take the following molecule into account.
*Q* Tell me its clearance given CCOC(=O)OC(CC)Oc1c(C(=O)NCc2ccc(F)cc2)nc(C(C)(C)NC(=O)c2nnc(C)o2)n(C)c1=O (centres unmarked) as the entry.
*A* 388

---

experiment: Oral pharmacokinetics in Wistar-Hanover rats; type: in vivo, male Wistar-Hanover rats; details: male, Wistar-Hanover; rat, oral gavage, plasma; prodrug measured; read-out: Cmax
Item-by-item account of Cmax
Provide only the numeric value, understood in nM.

Past entries and their recorded results:
COMPOUND | QUANTITY NAME | TEST RESULT
Cc1nnc(C(=O)NC(C)(C)c2nc(C(=O)NCc3ccc(F)cc3)c(OC(C)OC(=O)OC(C)C)c(=O)n2C)o1 (stereo not drawn) | Cmax | 19
CCOC(=O)OC(C)Oc1c(C(=O)NCc2ccc(F)cc2)nc(C(C)(C)NC(=O)c2nnc(C)o2)n(C)c1=O (stereo not drawn) | Cmax | 6

*Q* Tell me its Cmax given CCOC(=O)OC(CC)Oc1c(C(=O)NCc2ccc(F)cc2)nc(C(C)(C)NC(=O)c2nnc(C)o2)n(C)c1=O (stereo not drawn) as the entry.
*A* 21
